- experimental target: α4β2 nAChRs (Rattus norvegicus, UniProt P09483+P12390)
- Sequence (P09483 31-630): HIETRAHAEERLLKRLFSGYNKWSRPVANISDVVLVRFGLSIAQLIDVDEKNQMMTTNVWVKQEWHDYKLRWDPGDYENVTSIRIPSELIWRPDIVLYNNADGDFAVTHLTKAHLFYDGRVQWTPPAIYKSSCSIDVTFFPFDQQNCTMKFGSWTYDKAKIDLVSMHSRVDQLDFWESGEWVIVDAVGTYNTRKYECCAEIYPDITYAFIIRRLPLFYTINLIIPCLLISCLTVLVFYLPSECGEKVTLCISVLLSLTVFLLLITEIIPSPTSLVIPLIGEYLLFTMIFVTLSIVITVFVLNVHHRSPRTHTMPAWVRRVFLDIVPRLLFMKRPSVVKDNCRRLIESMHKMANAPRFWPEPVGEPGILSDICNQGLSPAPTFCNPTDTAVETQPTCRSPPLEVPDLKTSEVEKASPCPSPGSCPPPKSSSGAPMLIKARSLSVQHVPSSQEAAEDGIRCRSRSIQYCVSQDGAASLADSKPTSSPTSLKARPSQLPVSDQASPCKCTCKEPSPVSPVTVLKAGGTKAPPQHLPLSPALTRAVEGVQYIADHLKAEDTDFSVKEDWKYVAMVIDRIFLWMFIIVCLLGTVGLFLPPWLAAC
- Sequence (P12390 25-500): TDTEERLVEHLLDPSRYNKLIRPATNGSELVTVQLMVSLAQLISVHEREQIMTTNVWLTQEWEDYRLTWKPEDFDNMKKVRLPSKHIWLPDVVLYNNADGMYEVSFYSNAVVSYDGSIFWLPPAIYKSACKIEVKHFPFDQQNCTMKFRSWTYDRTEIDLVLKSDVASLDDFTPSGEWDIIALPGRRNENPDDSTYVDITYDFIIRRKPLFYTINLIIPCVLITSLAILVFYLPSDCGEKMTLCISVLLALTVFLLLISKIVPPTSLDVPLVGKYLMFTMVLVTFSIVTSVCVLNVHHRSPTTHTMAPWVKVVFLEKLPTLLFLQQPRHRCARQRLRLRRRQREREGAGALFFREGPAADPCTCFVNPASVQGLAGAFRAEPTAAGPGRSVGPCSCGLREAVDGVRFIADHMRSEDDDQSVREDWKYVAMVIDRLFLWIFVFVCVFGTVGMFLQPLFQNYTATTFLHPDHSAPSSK
- assay name: biochemical
- Type: binding

[
  {
    "compound": "Fc1ncc(C2CC3CCC2N3)cc1I (stereo not shown)",
    "Hill Slope": 1.0
  },
  {
    "compound": "Nc1ccc(C2CC3CCC2C3)cn1 (stereo not shown)",
    "Hill Slope": 1.1
  },
  {
    "compound": "Oc1ncc(C2CC3CCC2N3)cc1-c1ccccc1 (stereo not shown)",
    "Hill Slope": 1.04
  },
  {
    "compound": "Nc1ncc(C2CC3CCC2N3)cc1-c1cccc([N+](=O)[O-])c1 (stereo not shown)",
    "Hill Slope": 1.1
  }
]

Data provenance: patent US7615567B2
